- targetOrSystem: recombinant PRL-2 (Homo sapiens)
- Construct: 6xHis (N, cleaved yes); made in house; host or cells: E. coli One Shot BL21 Star
- Sequence (Q12974 whole entry): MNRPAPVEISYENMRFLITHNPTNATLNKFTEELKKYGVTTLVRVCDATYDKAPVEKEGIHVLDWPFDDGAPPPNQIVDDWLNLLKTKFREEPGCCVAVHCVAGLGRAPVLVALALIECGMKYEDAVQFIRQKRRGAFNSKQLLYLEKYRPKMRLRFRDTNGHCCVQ
- experimentalDetails: In vitro phosphatase assay (DiFMUP hydrolysis), PRL-2;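 further: PRL-2 activity read as DiFMUP hydrolysis after 20 min at room temperature with drug, enzyme first pre-reduced at 4 °C for 20 min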
- Format: biochemical
- conditionDetails: FDA-approved drug screen; compared to DMSO
readoutName: % Phosphatase Activity (compared to DMSO) PRL-2 (%)
Give bare numbers, in %.

Provide reported % Phosphatase Activity (compared to DMSO) PRL-2 for each item, in the same order as listed.
1. O=C(N/N=C/c1ccc([N+](=O)[O-])o1)c1ccc(O)cc1 [Nifuroxazide]
2. O=C(O)c1ccccc1O

Response given:
1: 62; 2: 124
